# Test system: UACC-62
# Procedure summary: NCI-60 SRB screen
# Condition: read-out: LC50; UACC-62, 48 h
Measurement kind: CC50
Write down the value, and be sure its unit follows.

Entry O=C(O)CCCCCN1C(=O)/C(=C/C=C/c2ccc([N+](=O)[O-])o2)SC1=S [14b] , system UACC-62: what CC50 was measured?
2820 nM

* * *

# System: IGROV1
# Procedure summary: NCI-60 SRB screen
# Condition: Homo sapiens, IGROV-1, 48 h, read-out: LC50, IGROV1, 48 h
Answer each item with its documented CC50.
Numeric only. Scale: µM

Entry O=C(O)CCN1C(=O)/C(=C/C=C/c2ccc([N+](=O)[O-])o2)SC1=S [12b] , system IGROV1: what CC50 was measured?
5.7

Input O=C(O)CCCCCN1C(=O)/C(=C/C=C/c2ccc([N+](=O)[O-])o2)SC1=S [14b]
5.01

Input O=C(O)CCCN1C(=O)/C(=C/C=C/c2ccc([N+](=O)[O-])o2)SC1=S [13b]
5.14

Input CC(C)C(C(=O)O)N1C(=O)/C(=C/C=C/c2ccc([N+](=O)[O-])o2)SC1=S (stereo not shown) [5b]
6.57

Input CCCC(C(=O)O)N1C(=O)/C(=C/C=C/c2ccc([N+](=O)[O-])o2)SC1=S (stereo not shown) [4b]
7.75

Input O=C(O)C(c1ccccc1)N1C(=O)/C(=C/C=C/c2ccc([N+](=O)[O-])o2)SC1=S (stereo not shown) [9b]
66.6

Input CCCCC(C(=O)O)N1C(=O)/C(=C/C=C/c2ccc([N+](=O)[O-])o2)SC1=S (stereo not shown) [6b]
18
